Where these numbers come from: PubChem BioAssay (NCI)

tested on: NCI-H23 lung; test: NCI tumour cell line growth inhibition, 48 h
recorded-metric: TGI

Worked examples, 2 molecules total:
> print(dat)
                            chemical.string    result
1               N#Cc1nc(COCCOCc2ccccc2)oc1N  > 100 µM
2  COC(=O)C1=C(c2ccc3c(c2)OCO3)O[C@H](c2ccc3c(c2)OCO3)[C@H]1COC(C)=O  > 100 µM

Query "N#CCCN(c1ccc(/C=C2\N=C(c3ccc(Cl)cc3)OC2=O)cc1)S(=O)(=O)c1ccccc1" yields TGI of > 100 µM

* * *

TGI values by entry
tested on: 786-0 renal; assay: NCI tumour cell line growth inhibition, 48 h

Solved cases below.
> print(dat)
                                   compound    result
1          O=C(CCc1ccc(O)cc1)NCCc1ccc(O)cc1  > 100 µM
2  Cc1cc(C)cc(Nc2nnc3n2S(=O)(=O)c2cc(C#N)c(Cl)cc2S3)c1  > 100 µM
3  COc1ccc(C2CC(=O)c3c(O)c(OC)c(OC)c(OC)c3O2)c(O)c1 (stereo unspecified)  > 100 µM

According to the records, this compound "S=C(/N=c1/sc(Nc2ccccc2)nc2sc3c(c12)CCCC3)Nc1ccccc1" displays TGI of > 62.5 µM

TGI reading for CC(=O)c1cccc2c1CC1(C2)Cc2ccc3c(c2C1=O)CCC3 (stereo unspecified) : > 100 µM

Kindly note the recorded TGI for "CC(C)(C)OC(=O)N(CCCN(CCn1c2c(c3ccccc3c1=O)C(=O)c1ccccc1-2)C(=O)OC(C)(C)C)CCn1c2c(c3ccccc3c1=O)C(=O)c1ccccc1-2" , which is > 50 µM

* * *

tested on: SNB-75 CNS; test: NCI tumour cell line growth inhibition, 48 h
recorded-metric: TGI

Examples from the recorded data:
> print(dat)
                                   compound    result
1                       NCCCNCCSSCCCCS(=O)O  > 100 µM
2  O=[N+]([O-])C(C(Cl)=C(Cl)Cl)=C(N1CCOCC1)N1CCOCC1  > 100 µM
3  CCOC(=O)NC(Nc1ccc(S(=O)(=O)Nc2ncccn2)cc1)(C(=O)OCC)C(F)(F)F (centres undefined)  > 100 µM
4  COc1ccc(-n2c(SCc3cc(OC)c(OC)c(OC)c3)nc3ccc(C)cc3c2=O)cc1  > 100 µM

Query "CC(C)=CC(=O)N1CCN(C(=O)C=C(C)C)CC1" yields TGI of > 100 µM

TGI measured on COc1ccccc1N1C(=O)/C(=C\c2cccc(Oc3ccccc3)c2)SC1c1ccccc1 (centres undefined) = > 100 µM

The compound "Cc1c(Cc2ccccc2)n(COCCCO)c(=O)[nH]c1=O" showed TGI equal to > 100 µM

Reported TGI for CCOC(=O)CC(NC(=O)c1nc[nH]c1[N+](=O)[O-])C(=O)OCC (centres undefined) was > 100 µM

Recorded result, Clc1cccc(Cl)c1C1SCC2=Nc3ccccc3CN21 (centres undefined) , TGI: > 100 µM

Notebook: "COc1ccc2c(c1)CCCc1cn[nH]c1-2" , TGI read as > 100 µM

Quick note, TGI for "Nc1nc(Cl)cc(NCC2(CO)COC2)n1" landed at > 100 µM

For this compound ( "Oc1cc(O)c2c(c1)O[C@H](c1cc(O)c(O)c(O)c1)[C@H](O)C2" ), measured TGI is 98 µM

GET /value?item= "CCN(CC)C(=O)C/C(C)=N/NC(=O)c1ccncc1" &field=TGI returns > 100 µM

# TGI (compound: O=C(NC1CCCCCC1)C1C(=O)N(C2CCCCCC2)C(=O)/C1=N\O (centres undefined) ) is 91.9 µM

TGI in this record for CCC1(O)C(=O)OCc2c1cc1n(c2=O)Cc2cc3c(N)cccc3nc2-1 (centres undefined) : 0.251 µM

For reference, reported TGI for CN(C)/N=C(\CCN1CCCC1)CC(c1ccccc1)c1c(O)c2ccccc2oc1=O (centres undefined) stands at > 100 µM

Sample COc1ccc(-c2c(C(C)=O)c(-c3ccccc3)n(C3OC(COC(C)=O)C(OC(C)=O)C(OC(C)=O)C3OC(C)=O)c(=S)c2C#N)cc1 (centres undefined) ; TGI observed: > 100 µM

Documented TGI of "CCCCC/C=C/C/C=C/CCCCCCCC1=NC(C)(C)CN1C(C)C" : 2.87 µM

Summary for this compound, "COC(=O)[C@]12CCC(C)(C)C[C@H]1C1=CC[C@@H]3[C@@]4(C)C/C(=C/c5cccnc5)C(=O)C(C)(C)[C@@H]4CC[C@@]3(C)[C@]1(C)CC2" : TGI is 48.5 µM

* * *

test system: SF-268 CNS; assay: NCI tumour cell line growth inhibition, 48 h
recorded-metric: TGI

Below, each entry is followed by its recorded TGI result.
compound	result
O=P(O)(O)CN1CCN(CP(=O)(O)O)CCN(CP(=O)(O)O)CCN(CP(=O)(O)O)CC1	> 100 µM
CC(=O)O[C@@H]1C=C(C)[C@H](CBr)O[C@@]2(C)CC[C@H](Br)C(C)(C)[C@H]12	> 100 µM
COC12C=CC(CC1)C(C)(C)C2=O (configuration not stated)	> 100 µM
CC#CC(=O)Nc1ccccc1CC(c1c[nH]c2ccccc12)c1c[nH]c2ccccc12	59 µM
Oc1cc(O)c2c(c1)O[C@H](c1cc(O)c(O)c(O)c1)[C@H](O)C2	61.2 µM

Value of TGI reported for the compound CCOC(=O)C(Cl)(NC(=O)c1ccc(F)cc1)C(F)(F)F (configuration not stated) is > 100 µM

Summary for this compound, "O=C1SCC(O)=C1/C=N/Nc1nc2ccccc2o1" : TGI is > 100 µM

Quick note, TGI for "N#Cc1cnsc1" landed at > 100 µM

Lab note: "O=S(O)CCCCSSCCCCSSCCCCS(=O)O" gave TGI of > 100 µM

Measured TGI, "O=C(CCc1ccc(O)cc1)NCCc1ccc(O)cc1" : > 100 µM

* * *

test system: OVCAR-5 ovarian; assay: NCI tumour cell line growth inhibition, 48 h
recorded-metric: GI50

For this compound ( "CC(C)(C)OC(=O)N(CCCN(CCn1c2c(c3ccccc3c1=O)C(=O)c1ccccc1-2)C(=O)OC(C)(C)C)CCn1c2c(c3ccccc3c1=O)C(=O)c1ccccc1-2" ), measured GI50 is > 50 µM

Recorded result, "COc1cccc(NCc2nnc(Nc3ccc(Cl)cc3)c3ccccc23)c1" , GI50: 3.38 µM

Value of GI50 reported for the compound "COc1ccc(S(=O)(=O)N(Cc2ccc3c(n2)C=CC(C)(C)O3)C2CCC2)cc1OC" is < 0.01 µM

* * *

test system: K-562 leukemia; test: NCI tumour cell line growth inhibition, 48 h
// reported GI50 per item

Guide cases for GI50, answers given:
> print(dat)
                            chemical.string       tested.on    result
1     COc1ccc(-c2cc3c(nn2)-c2ccccc2C3=O)cc1  K-562 leukemia  > 100 µM
2  C[C@]12CC[C@@H]3c4ccc(O)cc4CC[C@H]3[C@@H]1CC[C@@H]2NS(=O)(=O)c1ccc(C(F)(F)F)cc1  K-562 leukemia   3.16 µM
3  COc1cc2c(/C=C3/C(=O)Nc4cccc(Cl)c43)c(Cl)n(Cc3ccccc3)c2cc1C  K-562 leukemia   5.22 µM
4      CC(=O)[O][Hg][c]1c(C)c(C)c(C)c(C)c1C  K-562 leukemia  0.468 µM
5  CC(C)(C)OC(=O)N(CCCN(CCn1c2c(c3ccccc3c1=O)C(=O)c1ccccc1-2)C(=O)OC(C)(C)C)CCn1c2c(c3ccccc3c1=O)C(=O)c1ccccc1-2  K-562 leukemia   12.4 µM

GI50 reported for this compound "O=C(CCCSc1nc(-c2ccc(Cl)cc2)cc(-c2ccc(Cl)cc2)n1)NO" : 0.727 µM

* * *

system: NCI-H226 lung; test: NCI tumour cell line growth inhibition, 48 h
recorded-metric: TGI

compound	TGI
C[N+](C)(N)CCC[N+](C)(C)N	> 100 µM
CC(=O)c1ccc(NC(=O)/C(Cc2ccccn2)=N/NC(=O)C[N+](C)(C)C)cc1	> 100 µM

Fill in: NCI-H226 lung TGI for "NCCCCn1c2c(c3ccccc3c1=O)C(=O)c1ccccc1-2" = 0.458 µM

Reported NCI-H226 lung TGI for item "S=C(/N=c1/sc(Nc2ccccc2)nc2sc3c(c12)CCCC3)Nc1ccccc1" was > 62.5 µM

Entry "Cc1ccc(C(=O)/C=C/c2ccccc2O)c(C)c1" under NCI-H226 lung had TGI of > 100 µM

* * *

tested on: U251 CNS; assay: NCI tumour cell line growth inhibition, 48 h
Catalogue of TGI values

molecule	result
O=C(CNc1ccc(Cl)cc1)Nn1c(-c2ccccc2)nc2ccccc2c1=O	5.02 µM
CC/C(=N/O)c1ccc(Br)s1	> 100 µM
COc1cccc(NCc2nnc(Nc3ccc(Cl)cc3)c3ccccc23)c1	6.54 µM

Now look at this entry.
"N#[O+].O=S(=O)([O-])[O-].[NH2-].[NH2-].[NH2-].[NH2-].[NH2-].[Ru+5]" has a reported TGI of > 100 µM
